Test system: Staphylococcus aureus
PROCEDURE TEXT: Antimicrobial activity against wild-type Staphylococcus aureus ATCC 29213 after 18 to 24 hrs by alamar blue assay
EXPERIMENTAL PARAMETERS: Staphylococcus aureus, ATCC 29213
Threshold check on MIC90: strictly below 2 µM is YES; on or above 2 µM is NO.

Some entries whose results are on file:
1) Cc1ccc(C(C)C)c(Oc2cc(Cl)ccc2NC(=O)c2cc(Br)cc(Br)c2O)c1	YES
2) Cc1ccc(C(C)C)c(Oc2ccccc2NC(=O)c2cc(I)cc(I)c2O)c1	NO
3) O=C(c1ccc(Cl)cc1)c1ccc(Oc2ccc(Cl)cc2)c(NC(=O)c2cc(I)cc(I)c2O)c1	NO
4) CCc1ccc2oc(-c3cccc(NC(=O)c4ccc([N+](=O)[O-])o4)c3)nc2c1	YES

# evaluate next
Bench note: check whether C=C(C/C=C(\C)CCC=C(C)C)CCC(C)(C)/C=C/CC/C(C)=C/CO[C@@H](COP(=O)(O)O[C@H]1O[C@H](C(N)=O)[C@@](C)(O)[C@H](OC(N)=O)[C@H]1O[C@@H]1O[C@H](CO[C@@H]2O[C@H](CO)[C@@H](O)[C@H](O)[C@H]2O)[C@@H](O[C@@H]2O[C@H](C)[C@@H](O[C@@H]3O[C@H](C(=O)NC4=C(O)CCC4=O)[C@H](O)[C@H](O)[C@H]3O)[C@H](O)[C@H]2NC(C)=O)[C@H](O)[C@H]1NC(C)=O)C(=O)O shows MIC90 below 2 µM
NO
